Data credit: patent US6514997B2

System: strains of human rhinovirus (HRV)
Assay: Antirhinoviral H1-HeLa cell culture assay (XTT cell protection, EC50), other HRV strains
Type: cell-based, human rhinovirus in H1-HeLa cells
Conditions: H1-HeLa, HRV-23; read-out: EC50
Hi! Could you tag entries with EC50 below 40 nM as Yes, and those at or above as No? Much appreciated.

Dear reviewer, please state whether `C#CC[C@@H](C(=O)N[C@H](/C=C/C(=O)OCC)C[C@@H]1CCNC1=O)n1cccc(NC(=O)c2cc(C)on2)c1=O` has EC50 strictly beneath 40 nM.
No

`C#CC[C@@H](C(=O)N[C@H](/C=C/C(=O)OC1CCCC1)C[C@@H]1CCNC1=O)n1cccc(NC(=O)c2cc(C)on2)c1=O` , same question.
No

`CC[C@@H](C(=O)N[C@H](/C=C/C(=O)OC1CCC1)C[C@@H]1CCNC1=O)n1cccc(NC(=O)c2cc(C)on2)c1=O` , same question.
Yes

`CC[C@@H](C(=O)N[C@H](/C=C/C(=O)OCc1ccccc1)C[C@@H]1CCNC1=O)n1cccc(NC(=O)c2cc(C)on2)c1=O` , same question.
Yes

`C#CC[C@@H](C(=O)N[C@H](/C=C/C(=O)OC1CCC1)C[C@@H]1CCNC1=O)n1cccc(NC(=O)c2cc(C)on2)c1=O` , same question.
No

`Cc1cc(C(=O)Nc2cccn([C@@H](Cc3ccc(F)c(F)c3)C(=O)N[C@H](/C=C/C(=O)OC(C)C)C[C@@H]3CCNC3=O)c2=O)no1` , same question.
Yes

`C#CC[C@@H](C(=O)N[C@H](/C=C/C(=O)OCc1ccccc1)C[C@@H]1CCNC1=O)n1cccc(NC(=O)c2cc(C)on2)c1=O` , same question.
Yes
